# merged literature set: IC50 with Fibroblast growth factor receptor 1 (Homo sapiens)

[
  {
    "compound": "C=CC(=O)N1CC(Nc2ncc3cc(-c4c(Cl)c(OC)cc(OC)c4Cl)ccc3n2)c2ccccc21 (stereo not shown)",
    "IC50": "8 nM"
  },
  {
    "compound": "CC(C)Oc1cc(NC(=O)N(C)c2ccc(CN3CCN(C)CC3)c(C=O)n2)ncc1C#N",
    "IC50": "> 10000 nM"
  },
  {
    "compound": "COc1cc2nccc(Oc3ccc(N4CC(=O)N(C)C4=S)c(Cl)c3)c2cc1C(N)=O",
    "IC50": "200 to 1000 nM"
  },
  {
    "compound": "CC(Oc1ccc2[nH]nc(/C(F)=C/c3ccc(CN4CCC(O)C4)nc3)c2c1)c1c(Cl)cncc1Cl (stereo not shown)",
    "IC50": "10 to 50 nM"
  },
  {
    "compound": "C[C@@H](Oc1ccc2[nH]nc(/C=C(\\F)c3ccc(CNC4CCOCC4)nc3)c2c1)c1c(Cl)cncc1Cl",
    "IC50": "≤ 10 nM"
  }
]

Entry `CNc1cc2c(cn1)CN(c1c(F)c(OC)cc(OC)c1F)C(=O)C21CC1` , system Fibroblast growth factor receptor 1 (Homo sapiens): what IC50 was measured?
< 100 nM

Entry `C=CC(=O)N[C@H]1COC[C@H]1Nc1ncc(/C=C(\F)c2c(Cl)c(OC)cc(OC)c2Cl)cn1` , system Fibroblast growth factor receptor 1 (Homo sapiens): what IC50 was measured?
1460 nM

----------
# merged literature set: IC50 with Fibroblast growth factor receptor 1 (Homo sapiens)

The examples below pair each entry with its known result.
[
  {
    "compound": "CNS(=O)(=O)c1ccc2c(c1)/C(=C1\\CCc3cc(C)[nH]c31)C(=O)N2",
    "observationType": "IC50",
    "val": "25 nM"
  },
  {
    "compound": "COc1cc(OC)c(Cl)c(-c2cc3[nH]nc(-c4cnn(C)c4)c3cn2)c1Cl",
    "observationType": "IC50",
    "val": "< 100 nM"
  },
  {
    "compound": "COc1cc2ncc(Cl)c(Oc3ccc(NC(=S)NC4CC4)c(Cl)c3)c2cc1C(N)=O",
    "observationType": "IC50",
    "val": "200 to 1000 nM"
  },
  {
    "compound": "COc1cc2nccc(Oc3ccc(NC(=O)N4CC(F)(F)C4)c(Cl)c3F)c2cc1C(N)=O",
    "observationType": "IC50",
    "val": "200 to 1000 nM"
  },
  {
    "compound": "COCCOc1ccc(Nc2ncnc(Nc3ccc(C)c(O)c3)n2)cc1OCCOC",
    "observationType": "IC50",
    "val": "906 to 5440 nM"
  }
]

Kindly review the next compound as well.
Need IC50 of `C=CC(=O)Nc1ccc(OC)c(C)c1Nc1ncc(/C=C(\F)c2c(Cl)c(OC)cc(OC)c2Cl)cn1` , thanks.
174 nM

----------
# merged literature set: pIC50 with UniProtKB P11362
pIC50: −log10 of the molar value.

[
  {
    "compound": "CNC(=O)c1cc(F)c(F)c(-c2cnn3cc(-c4cnn(C5CCN(C)CC5)c4)c(O[C@H]4CCOC4)nc23)c1",
    "pIC50": "> 8.00"
  },
  {
    "compound": "Cc1[nH]c(/C=C2\\C(=O)Nc3cccc(-c4ccc(Cl)cc4)c32)c(C)c1C(=O)NCCN1CCCC1",
    "pIC50": 7.24
  },
  {
    "compound": "COc1cc2ncc(Cl)c(Oc3ccc(NC(=S)N4CC(F)(F)C4)c(Cl)c3)c2cc1C(N)=O",
    "pIC50": "6.00 to 6.70"
  },
  {
    "compound": "CNS(=O)(=O)N(C)c1cc(-c2ccc(F)cc2F)cc(-n2cnc3cc(-c4cnn(C(C)C)c4)cnc32)c1",
    "pIC50": 7.98
  },
  {
    "compound": "CC(=O)N(C)C1CCN(C(=O)c2ccc(-c3n[nH]c4ccc(OC(C)c5c(Cl)cncc5Cl)cc34)cc2)C1 (stereo not shown)",
    "pIC50": "6.00 to 7.30"
  }
]

Need pIC50 of `COc1cc(Nc2ncnc(-n3c(Nc4cccc(C(=O)O)c4)nc4ccccc43)n2)cc(OC)c1OC` , thanks.
5.17 to 5.33

Need pIC50 of `COc1cc(OC)c(F)c(-c2cc3[nH]nc(-c4cc5c(cc4F)C(=O)N(C(C)C)C5)c3cn2)c1F` , thanks.
> 7.00

----------
# merged literature set: pIC50 with Fibroblast growth factor receptor 1 (Homo sapiens)
pIC50: −log10 of the molar value.

[
  {
    "molecule": "CC(NC(=O)c1ccc(C2CC2)c(-c2ccc3nc(Nc4cnn(C5CC5)c4)ncc3c2)c1)c1cccc(C(F)(F)F)c1 (centres unmarked)",
    "pIC50": "< 6.00"
  },
  {
    "molecule": "COc1cc(Nc2ncnc(Nc3cccc4cccnc34)n2)cc(OC)c1OC",
    "pIC50": "5.06 to 5.23"
  },
  {
    "molecule": "OCc1cccc(Nc2ncnc(Nc3cc(-c4ccco4)n[nH]3)n2)c1",
    "pIC50": "> 5.94"
  },
  {
    "molecule": "COc1cc2nccc(Oc3ccc4c(C(=O)N5CCCC5)c[nH]c4c3)c2cc1C(N)=O",
    "pIC50": "6.00 to 6.70"
  }
]

Need pIC50 of `COCCN1CCC(Nc2ccc3c(c2)/C(=C(\c2cccc(Cl)c2)c2nc4ccccc4[nH]2)C(=O)N3)CC1` , thanks.
> 7.30

Need pIC50 of `COc1cc(OC)c(F)c(-c2ncc3c(-c4ccc5c(c4)CN(CCN(C)C)C5=O)n[nH]c3n2)c1F` , thanks.
> 7.00

Need pIC50 of `COc1ccc(Nc2ncnc(Nc3cc(OC)c(OC)c(OC)c3)n2)cc1` , thanks.
< 4.93

Need pIC50 of `COc1cc(Nc2ncnc(-c3cccnc3NCc3ccccc3F)n2)cc(OC)c1OC` , thanks.
5.01 to 5.12

----------
# merged literature set: pIC50 with Fibroblast growth factor receptor 1 (Homo sapiens)
pIC50: −log10 of the molar value.

Need pIC50 of `COC(=O)c1cccc(Nc2ncnc(Nc3cc(-c4ccco4)n[nH]3)n2)c1` , thanks.
> 5.97

Need pIC50 of `COc1cc(OC)c(F)c(-c2ccc3c(-c4cnn(C)c4)n[nH]c3n2)c1F` , thanks.
> 7.00

Need pIC50 of `COc1cc(Nc2ncnc(-n3c(NC(C)C)nc4ccccc43)n2)cc(OC)c1OC` , thanks.
> 6.04

Need pIC50 of `C[C@@H](Oc1ccc2[nH]nc(/C=C(\F)c3ccc(CN4CCN(CC(=O)O)CC4)nc3)c2c1)c1c(Cl)cncc1Cl` , thanks.
≥ 8.00

----------
# merged literature set: IC50 with Fibroblast growth factor receptor 1 (Homo sapiens, UniProt P11362)

[
  {
    "molecule": "COc1cc(Nc2ncnc(-n3ccc4cc(O)ccc43)n2)cc(OC)c1OC",
    "val": "< 1020 nM"
  }
]

Need IC50 of `COCCN1CCC(Nc2ccc3c(c2)/C(=C(\c2cccc(F)c2)c2nc(-c4ccccc4)c[nH]2)C(=O)N3)CC1` , thanks.
< 50 nM

Need IC50 of `Cn1cc(-c2cn3ncc(-c4cccc(-c5cc[nH]n5)c4)c3nc2O[C@H]2CCOC2)cn1` , thanks.
10 to 30 nM

Need IC50 of `C=CC(=O)NCc1cc2c(cn1)CN(c1c(F)c(OC)cc(OC)c1F)C(=O)N2CC(F)F` , thanks.
> 200 nM

----------
# merged literature set: IC50 with Fibroblast growth factor receptor 1 (Homo sapiens, UniProt P11362)
Response field label takes T when IC50 is strictly below 30 nM and F in all other cases.

Previously resolved entries follow.
[
  {
    "smilesString": "CC(=O)Nc1cc(-c2ccc(F)cc2F)cc(-n2cnc3cc(-c4cnco4)ccc32)c1",
    "targetOrSystem": "Fibroblast growth factor receptor 1 (Homo sapiens, UniProt P11362)",
    "classLabel": "T"
  },
  {
    "smilesString": "Cn1cc(-c2ccc3c(c2)ncn3-c2cc(-c3ccc(F)cc3F)cc(NS(=O)(=O)C3CC3)n2)cn1",
    "targetOrSystem": "Fibroblast growth factor receptor 1 (Homo sapiens, UniProt P11362)",
    "classLabel": "T"
  },
  {
    "smilesString": "COCCNc1cc(NC(=O)N(C)c2ccc(-c3cnn(C)c3)c(C=O)n2)ncc1C#N",
    "targetOrSystem": "Fibroblast growth factor receptor 1 (Homo sapiens, UniProt P11362)",
    "classLabel": "F"
  },
  {
    "smilesString": "COc1cccc(-c2cccc3c2/C(=C/c2[nH]c(C)c(C(=O)NCCn4ccnn4)c2C)C(=O)N3)c1",
    "targetOrSystem": "Fibroblast growth factor receptor 1 (Homo sapiens, UniProt P11362)",
    "classLabel": "F"
  },
  {
    "smilesString": "CCN(CC)CCNC(=O)c1c(C)[nH]c(/C=C2\\C(=O)Nc3cccc(-c4ccccc4)c32)c1C",
    "targetOrSystem": "Fibroblast growth factor receptor 1 (Homo sapiens, UniProt P11362)",
    "classLabel": "F"
  },
  {
    "smilesString": "CC(C)S(=O)(=O)Nc1cc(-c2cc(F)ccc2F)cc(-n2cnc3cc(-c4cnn(CCN5CCOCC5)c4)ccc32)c1",
    "targetOrSystem": "Fibroblast growth factor receptor 1 (Homo sapiens, UniProt P11362)",
    "classLabel": "F"
  }
]

Hi there! Is IC50 for `Cc1[nH]c(/C=C2\C(=O)Nc3cccc(-c4ccccc4F)c32)c(C)c1C(=O)N1CCN(C)CC1` below 30 nM, do you know?
F
